# System: VIOTR
# assayNotes: Post-emergence herbicidal effect, greenhouse pot test
# Type: in vivo, Viola tricolor
# experimentalConditions: Viola tricolor, 504 h, 80 g/ha, read-out: Post-emergence effect against VIOTR in %
assayMetric: pest or weed control at 80 g/ha (%)

INSERT INTO results (compound, experimentalsystem, recordedmeasurement) VALUES
  ('CCOC(Oc1nn(-c2ccccc2F)c(-c2ccc(F)nc2)c1Br)C(=O)OCCC(=O)OC (single isomer, unassigned) [Example I-59]', 'VIOTR', 90),
  ('COC(Oc1nn(-c2cc(F)ccc2F)c(-c2cncc(F)c2)c1Br)C(=O)O (centres unmarked)', 'VIOTR', 90),
  ('COC(=O)C(OC)Oc1nn(-c2ncccc2F)c(-c2ccc(F)nc2)c1C1CC1 (centres unmarked)', 'VIOTR', 90),
  ('COC(=O)C(OC)Oc1nn(-c2cccc(Cl)c2F)c(-c2cncc(F)c2)c1Cl (centres unmarked)', 'VIOTR', 80),
  ('CCOC(=O)C(OC)Oc1nn(-c2cnccn2)c(-c2ccc(F)nc2)c1Cl (centres unmarked)', 'VIOTR', 90),
  ('COC(=O)C(OC)Oc1nn(-c2ccccc2)c(-c2ccc(F)nc2)c1Cl (centres unmarked)', 'VIOTR', 80),
  ('CCOC(Oc1nn(-c2ccccc2F)c(-c2ccc(F)nc2)c1Br)C(=O)OCCC(=O)OC (single isomer, unassigned) [Example I-63]', 'VIOTR', 80),
  ('CCOC(=O)C(OC)Oc1nn(-c2cc(F)ccc2F)c(-c2cncc(F)c2)c1Br (centres unmarked)', 'VIOTR', 80);

====

Reported pest or weed control at 20 g/ha by item:
# Test system: ECHCG
# assayNotes: Post-emergence herbicidal effect, greenhouse pot test
# Format: in vivo, Echinochloa crus-galli
# experimentalConditions: Echinochloa crus-galli, 504 h, 20 g/ha, visual rating about 3 weeks after treatment, read-out: Post-emergence effect against ECHCG
assayMetric: pest or weed control at 20 g/ha (%)

INSERT INTO measurements (molecule, recordedmeasurement) VALUES
  ('CCOC(Oc1nn(-c2ccccc2F)c(-c2ccc(F)nc2)c1Br)C(=O)OCCC(=O)OC (single isomer, unassigned) [Example I-63]', 90),
  ('COC(=O)C(OC)Oc1nn(-c2ccccc2)c(-c2ccc(F)nc2)c1Br (stereo not drawn) [Example I-30]', 80),
  ('CCOC(=O)C(OC)Oc1nn(-c2ncccc2F)c(-c2cncc(F)c2)c1C1CC1 (stereo not drawn) [Example I-113]', 90),
  ('COC(=O)C(OC)Oc1nn(-c2cc(F)ccc2F)c(-c2cncc(F)c2)c1C1CC1 (stereo not drawn) [Example I-111]', 80),
  ('COC(=O)C(OC)Oc1nn(-c2ccccc2F)c(-c2ccc(F)nc2)c1C1CC1 (stereo not drawn) [Example I-71]', 90),
  ('CCOC(=O)C(OC)Oc1nn(-c2ccccc2F)c(-c2ccc(F)nc2)c1Br (stereo not drawn) [Example I-23]', 80),
  ('COC(Oc1nn(-c2cc(F)ccc2F)c(-c2cncc(F)c2)c1C1CC1)C(=O)O (stereo not drawn) [Example I-109]', 80),
  ('COC(=O)C(OC)Oc1nn(-c2ncccc2F)c(-c2cncc(F)c2)c1C1CC1 (stereo not drawn) [Example I-73]', 90),
  ('CCOC(=O)C(OCC)Oc1nn(-c2ccccc2F)c(-c2ccc(F)nc2)c1Cl (stereo not drawn) [Example I-50]', 90),
  ('COC(=O)C(OC)Oc1nn(-c2ncccc2F)c(-c2cncc(F)c2)c1Br (stereo not drawn) [Example I-91]', 80),
  ('COC(Oc1nn(-c2ncccc2F)c(-c2cncc(F)c2)c1C1CC1)C(=O)O (stereo not drawn) [Example I-68]', 80),
  ('COC(=O)C(OC)Oc1nn(-c2ncccc2F)c(-c2cncc(F)c2)c1I (stereo not drawn) [Example I-72]', 90);

Just for reference, patent US20240391862A1 is where these values come from.
